Test system: TK-10 renal
protocol-notes: NCI-60 one-dose screen, 48 h (100 = growth as untreated, 0 = no growth, -100 = all killed)
measurement-conditions: 10 µM unless noted
The panel holds about 83,000 compounds, 20% with a hit somewhere; the sample as a whole holds those more often.
I'd appreciate it if you could supply growth values for the items below.
Answers are plain numbers, in %.

These solved cases illustrate the format of a correct answer.
CCOc1ccccc1C(=O)N1CCN(c2cc(Cl)cc(Cl)c2)CC1: 55.5
O=[N+]([O-])c1ccc(NS(=O)(=O)c2ccccc2)c2ccccc12: 53.1
CNCCCOc1c(Br)cc(CCNC(=O)/C(Cc2cc(Br)c(OC)c(Br)c2)=N/O)cc1Br: 34.7
CCCCCCCCCCCCCCCCNc1ccccc1: 90.9
c1nc(SC2=NCCN2)c2[nH]cnc2n1: 22.6

Count: 5. Required value per item: growth.
1. Nc1nc(-c2cc3c(cc2Cl)NC(=O)/C3=C/c2ccccc2)cs1
2. O=C(O)c1ccc(-n2cc(/C=N/Nc3ccc(Cl)cc3)c(-c3ccc(F)c(F)c3)n2)cc1
3. COc1ccc(Cn2cc3c(c2-c2cc(OC)c(OC)c(OC)c2)CCc2c(CO)noc2-3)cc1
4. COc1cc(Cn2cc3c(c2)-c2onc(CO)c2CC3)cc(OC)c1OC
5. COc1ccc2c(c1)O/C(=C/c1ccc(OCC(=O)Nc3ccc(S(N)(=O)=O)cc3)cc1)C2=O

100
94.1
74.5
96.4
115

----------
System: NCI/ADR-RES ovarian
protocol-notes: NCI-60 one-dose screen, 48 h
measurement-conditions: 10 µM unless noted
Compounds without any hit were thinned out: in the full panel of roughly 83,000, 20% have a hit. Activity calls are given as the source filed them. How the source made its calls: active means growth percent below 10; inactive means the rest.
Hi there, use one of these labels in your reply, thanks! 1 (yes) for active, 0 (no) for inactive

A selection of reference data follows.
Nc1nc(-c2cc3c(cc2Cl)NC(=O)/C3=C/c2ccccc2)cs1: 0 (no)
O=[N+]([O-])c1ccccc1NC1c2ccccc2Oc2ccccc21: 0 (no)
Cc1[nH]n(C(=O)c2ccncc2)c(=O)c1N=Nc1ccc(S(=O)(=O)Nc2ccncn2)cc1: 0 (no)
c1nc(SC2=NCCN2)c2[nH]cnc2n1: 0 (no)
CCN(CC)CCNCC(O)Cc1ccc(OC)cc1 (stereo not drawn): 0 (no)

Entry CC1CCc2cc(F)cc3c(=O)c(C(=O)O)cn1c23 (stereo not drawn) : call = ?
0 (no)

What did this assay record as the result for `COc1cc(/C=C/C(=O)N2CCC=CC2=O)cc(OC)c1OC` ?
0 (no)

Test call, this compound: CC(=O)N1N=C(CCC(=O)c2nc3ccc([N+](=O)[O-])cc3[nH]2)OC1c1ccc(O)cc1 (stereo not drawn)
0 (no)

Could you please tell me the result logged for `O=C(Nc1ccc(-n2cc(-c3ccncc3)c(-c3ccc(O)c(Cl)c3)n2)cc1)c1cc(Cl)cc(Cl)c1` in this assay?
0 (no)

Would you mind telling me which call this test gave `COc1ccc(-c2coc3c(CO)c(O)ccc3c2=O)cc1` ?
0 (no)

Entry S=C=NP1(N=C=S)=NP(N=C=S)(N=C=S)=NP(N=C=S)(N=C=S)=NP(N=C=S)(N=C=S)=N1 (stereo not drawn) : call = ?
0 (no)

Called result for `O=C(Nc1ccccc1Cl)c1c[nH]c(=O)c(-c2ccc(N3CCCOC4(CC4)C3)cc2)c1`
0 (no)

Given `CS(=O)(=O)Nc1cccc(-c2ccc3ncnc(Nc4ccc(F)c(Cl)c4)c3c2)c1` , state the outcome it received in this test.
0 (no)

----------
Test system: OVCAR-8 ovarian
protocol-notes: NCI-60 one-dose screen, 48 h
measurement-conditions: 10 µM unless noted
About 83,000 compounds went through this panel and 20% of them were active in at least one assay; those are over-represented in the sample as a whole. Calls of active or inactive are those of the source. The calls were made as follows: active = growth percent below 10; inactive = the rest.
Log the outcome using a class from label 1 = active, label 0 = inactive

O=[N+]([O-])c1cccc(C2c3ccccc3Oc3ccccc32)c1: label 0
CCN(CC)C(=O)C1CCN(C(=O)c2ccccc2)CC1: label 0
COc1ccc(C[C@H](N)C(=O)N[C@@H]2[C@@H](CO)OC(n3cnc4c(N(C)C)ncnc43)[C@@H]2O)cc1 (stereo not given in full): label 1
N#Cc1c(N)nc2c(c1N)C(c1ccc(Cl)cc1)C1=C(CCCC1=O)N2c1sc2c(c1C#N)CCCC2 (stereo not given): label 0
COc1cc(Nc2ncccc2C(=O)Nc2nc3ccc(F)cc3s2)cc(OC)c1OC: label 0
Fc1ccc(Nc2ncnc3ccc(-c4cn[nH]c4)cc23)cc1Cl: label 0
CCCC(=O)Oc1ccc(/C(=C(\C)c2ccc(Cl)cc2)c2ccc(OCCN(CC)CC)cc2)cc1: label 1
CC(=O)c1cc2c(N)c(C(=O)Nc3cccc(Cl)c3)sc2nc1C: label 0

Which outcome was entered for the compound `CN(C)CCS(=O)(=O)Nc1cc(-c2ccc3ncnc(Nc4ccc(F)c(Cl)c4)c3c2)cnc1Cl` in this test?
label 0

Write down the call the test reported for this compound. Item: `O=C(Nc1ccc(-n2cc(-c3ccncc3)c(-c3ccc(O)c(Cl)c3)n2)cc1)c1ccc(Cl)c(Cl)c1`
label 0

I'd appreciate the recorded outcome for `CC(C)[C@@H]1NC(=O)[C@]2(C)CSC(=N2)c2ccnc(c2)CNC(=O)C[C@@H](/C=C/CCS)OC1=O` from this test.
label 1

Answer briefly: the call reported for COC(OC)C1(c2ccccc2)NC(=O)NC1=O (stereo not given) in this assay.
label 0

What is the recorded call for this compound in the test? `COc1cc2ncn3c(=O)c4c5c(sc4nc3c2cc1OC)CCCCC5`
label 0

Per the assay record, what outcome was assigned to COc1ccc(C2=NN(C(=O)COc3ccc(Cl)cc3)C(O)(c3cc(F)c(Cl)cc3Cl)C2)cc1 (stereo not given) ?
label 0

Which outcome was entered for the compound `COc1ccc(-c2cnc(-c3ccc(F)cc3)[nH]2)cc1` in this test?
label 0

Given `COc1ccc2c(c1)O/C(=C/c1ccc(OCC(=O)Nc3ccc(S(N)(=O)=O)cc3)cc1)C2=O` , state the outcome it received in this test.
label 0

Hi team, can someone confirm the assay call for `O=C(Cn1c2ccccc2c2ccncc21)N/N=C\c1ccc2ccccc2c1` ?
label 0

Each compound tested received a call. Report the one for C=C(C)[C@@H]1C/C=C(\COC(=O)[C@H](OC(C)=O)C(NC(=O)c2ccccc2)c2ccccc2)CC[C@H]2O[C@]2(C)CC/C=C(\C)CC1 (stereo not given in full) .
label 0

Kindly provide the recorded test outcome for the following compound: `COc1ccccc1S(=O)(=O)Nc1ccc2c3c(cc(-c4ccoc4)nc13)C(=O)N2C`
label 0

# lookup: test call for `CNCCCOc1c(Br)cc(CCNC(=O)/C(Cc2ccc(OC)c(Br)c2)=N/O)cc1Br`
label 0

Could you check what this test reported for `CN(C)CCNc1nc2ccccc2c2c(=O)c3ccccc3sc12` ?
label 0

How did this test come out for `COc1ccc(/C=C2/C(=O)Nc3cc(Cl)c(-c4csc(N)n4)cc32)cc1` ?
label 0

Tell me the recorded outcome of this test for `CCOc1ccc(NC(=O)Nc2cc(C(C)C)ccc2C)cc1` .
label 0

----------
Tested on: TK-10 renal
protocol-notes: NCI-60 one-dose screen, 48 h (100 = growth as untreated, 0 = no growth, -100 = all killed)
measurement-conditions: 10 µM unless noted
Compounds without any hit were thinned out: in the full panel of roughly 83,000, 20% have a hit.
quantity-measured: growth (%)
Give bare numbers, in %.

O=C(Nc1ccccc1Cl)c1c[nH]c(=O)c(-c2ccc(N3CCCOC4(CC4)C3)cc2)c1: 52.4

// for each compound below, give its growth
1. COc1ccc(/C=C2/C(=O)Nc3cc(Cl)c(-c4csc(N)n4)cc32)cc1
2. FC(F)(F)c1cn(CCN2CCOCC2)c2ncnc(Cl)c12
3. CC(/C=C/C=C(\C)[C@H](O)[C@H](C)C(=O)O[C@H]1C[C@H](C)C=C2C=C[C@@]3(C)O[C@@H](O)CC(=O)[C@]3(C)[C@H]21)=C\C=C\C(=O)O

84.4
113
15.5

----------
Test system: SK-MEL-5 melanoma
protocol-notes: NCI-60 one-dose screen, 48 h (100 = growth as untreated, 0 = no growth, -100 = all killed)
measurement-conditions: 10 µM unless noted
This is part of a sample that, as a whole, favours compounds with a hit. Of some 83,000 tested, about 20% had one in any assay.
Entries whose growth is below 80% take Met; entries at or above 80% take Not met.

Illustrative cases are given below, each with its answer.
OCc1cnccc1NC12CC3CC(CC(C3)C1)C2: Not met
CCCCCn1ncc(-c2c(O)c(O)cc3c(O)c(-c4c(C)cc5c(-c6cnn(CCCCC)n6)c(O)c(O)cc5c4O)c(C)cc23)n1: Met
COc1ccc(/C=N/C2=NNC(C)(c3ccccc3O)N2C(Cc2c[nH]c3ccccc23)C(=O)O)cc1 (configuration not stated): Met
O=C1c2ccccc2OC=C(c2ccccc2)N1CCCCN1CCCCC1: Not met
CCCC(=O)Oc1ccc(/C(=C(\C)c2ccc(Cl)cc2)c2ccc(OCCN(CC)CC)cc2)cc1: Met
CCOC(=O)n1cnc2c(Cl)ncnc21: Not met

Query compound follows.
Decide: growth of COc1ccc(SC2c3ccc(O)cc3Oc3nc(N)c(C#N)c(N)c32)cc1 (configuration not stated) strictly below 80%?
Met
